measuredOn: MAP/microtubule affinity-regulating kinase 4 (Homo sapiens)
Sequence (whole entry): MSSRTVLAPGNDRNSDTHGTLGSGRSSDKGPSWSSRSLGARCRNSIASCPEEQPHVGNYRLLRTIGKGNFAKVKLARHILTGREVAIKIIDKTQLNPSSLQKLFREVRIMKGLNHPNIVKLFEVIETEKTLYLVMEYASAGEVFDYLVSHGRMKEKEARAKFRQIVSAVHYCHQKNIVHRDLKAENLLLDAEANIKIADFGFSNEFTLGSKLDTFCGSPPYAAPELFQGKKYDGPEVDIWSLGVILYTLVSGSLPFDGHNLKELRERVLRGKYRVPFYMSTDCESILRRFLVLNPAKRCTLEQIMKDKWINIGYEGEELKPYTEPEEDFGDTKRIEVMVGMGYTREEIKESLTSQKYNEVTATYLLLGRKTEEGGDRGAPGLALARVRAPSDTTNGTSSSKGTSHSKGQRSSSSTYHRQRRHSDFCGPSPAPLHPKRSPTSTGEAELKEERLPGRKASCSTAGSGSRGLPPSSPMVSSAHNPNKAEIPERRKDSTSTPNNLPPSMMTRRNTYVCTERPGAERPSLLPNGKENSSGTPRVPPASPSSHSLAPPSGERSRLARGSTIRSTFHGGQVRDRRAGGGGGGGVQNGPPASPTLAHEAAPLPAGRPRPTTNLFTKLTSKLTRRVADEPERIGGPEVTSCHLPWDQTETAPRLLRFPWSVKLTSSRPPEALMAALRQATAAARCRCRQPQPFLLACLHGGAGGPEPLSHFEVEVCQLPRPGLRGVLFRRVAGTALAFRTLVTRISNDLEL
assaySetup: at 0.1 µM
Lab note: anything with inhibition at or over 1% counts as criterion met; the rest go in criterion not met.

Example results:
Fc1ccc(-c2ncn(CCCN3CCOCC3)c2-c2ccncc2)cc1	criterion not met
COc1cccc(/C=N/Nc2ncnc3c2cnn3-c2cccc(OC)c2)c1	criterion not met
COc1cc(Nc2ncc3c(C)nc(-c4cccc(C(F)(F)F)c4)n3n2)cc(OC)c1OC	criterion met
COc1ccc2ncn(-c3cc(O[C@H](C)c4ccccc4Cl)c(C(N)=O)s3)c2c1	criterion met

Textbook exercise: given the entry Cc1ccc(NC(=O)c2ccoc2)cc1-c1ccc(C(=O)NCC2CC2)cc1 , state whether its inhibition is greater than or equal to 1%.
criterion not met

What would you report for COc1cc(C)c(N(C)C(=O)CN(C)C)cc1Nc1nc(Nc2cccc(F)c2C(N)=O)c2cc[nH]c2n1 ?
criterion met

Now try FC(F)(F)c1cccc(Nc2nccc(-c3cnn4nc(-c5ccccc5)ccc34)n2)c1 .
criterion met

Try this molecule next: NS(=O)(=O)c1ccc(N/N=C2\C(=O)Nc3ccc(-c4cnco4)cc32)cc1
criterion met

----------
measuredOn: Serine/threonine-protein kinase Nek9 (Homo sapiens)
assaySetup: at 1 µM
measurementLabel: inhibition (%)
Dear colleague, please return just the value in %, with no unit written.

// known answers, use as guide
Fc1ccc(-c2ncn(C3CCNCC3)c2-c2ccnc(Oc3ccc4c(c3)OCO4)n2)cc1	7.95
Cc1ccc(C(=O)NC(C)C)cc1-c1ccc(C(=O)NCC2CC2)cc1	4.93

GET /values?readout=inhibition&item= Clc1ccc(CNc2nccc(-c3cnn4ncccc34)n2)cc1
-2.99

----------
measuredOn: Macrophage colony-stimulating factor 1 receptor (Homo sapiens) (UniProt P07333)
Sequence (P07333 whole entry): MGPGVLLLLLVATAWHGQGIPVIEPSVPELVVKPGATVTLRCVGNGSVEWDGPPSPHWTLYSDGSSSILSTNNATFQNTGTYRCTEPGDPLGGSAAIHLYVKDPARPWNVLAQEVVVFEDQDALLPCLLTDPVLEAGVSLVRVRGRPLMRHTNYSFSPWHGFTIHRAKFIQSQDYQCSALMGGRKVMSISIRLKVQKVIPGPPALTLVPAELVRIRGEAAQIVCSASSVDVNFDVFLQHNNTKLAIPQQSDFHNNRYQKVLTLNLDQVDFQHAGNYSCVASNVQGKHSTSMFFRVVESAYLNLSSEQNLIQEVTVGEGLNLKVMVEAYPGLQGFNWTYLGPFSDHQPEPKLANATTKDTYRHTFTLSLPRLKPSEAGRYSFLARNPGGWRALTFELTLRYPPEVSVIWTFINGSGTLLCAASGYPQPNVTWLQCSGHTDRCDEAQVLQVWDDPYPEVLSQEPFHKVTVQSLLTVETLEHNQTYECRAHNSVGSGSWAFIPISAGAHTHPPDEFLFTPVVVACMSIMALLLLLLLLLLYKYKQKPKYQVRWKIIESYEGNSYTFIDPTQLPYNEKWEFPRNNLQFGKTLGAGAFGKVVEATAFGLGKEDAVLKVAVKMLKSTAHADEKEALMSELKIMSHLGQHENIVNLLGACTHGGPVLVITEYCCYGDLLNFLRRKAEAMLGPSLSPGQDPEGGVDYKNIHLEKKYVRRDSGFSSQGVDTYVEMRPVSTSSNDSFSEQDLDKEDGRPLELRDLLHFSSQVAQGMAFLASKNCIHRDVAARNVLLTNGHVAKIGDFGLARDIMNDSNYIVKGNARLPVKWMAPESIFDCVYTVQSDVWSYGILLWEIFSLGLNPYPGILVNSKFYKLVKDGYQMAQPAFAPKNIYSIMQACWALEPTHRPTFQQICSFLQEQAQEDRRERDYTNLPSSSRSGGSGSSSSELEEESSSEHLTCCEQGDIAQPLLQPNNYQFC
assaySetup: at 0.1 µM
inhibition: recorded values
Supply the numeric figure in %, leaving out any unit text.

Below, 4 compounds whose answers are already recorded.
Fc1ccc(-c2ncn(C3CCNCC3)c2-c2ccnc(Oc3ccc(Oc4ccccc4)cc3)n2)cc1	2.27
c1ccc(-c2n[nH]cc2-c2ccnc(-c3ccc(OCCN4CCOCC4)cc3)c2)nc1	2.4
COc1ccc2cc(-c3c(-c4ccncc4)nc(-c4ccc(S(C)(=O)=O)cc4C)n3C)ccc2c1	0.81
CCc1ccc(Oc2nccc(-c3c(-c4ccc(F)cc4)ncn3C3CCNCC3)n2)cc1	1.36

Need inhibition, item O=C(Nc1n[nH]c2nc(-c3ccco3)ccc12)C1CC1
-1.01

Quick one: CNC(=O)c1cncc(/C=C/c2c(C)cccc2C)c1
12

Next compound: NCc1ccc(-n2c(-c3nonc3N)nc3cnccc32)cc1
12.5

Request: O=C1NC(=O)C(c2cccc(Cl)c2)=C1Nc1ccc(Cl)c(C(=O)O)c1
-0.3

Entry to check: COc1cc(C)c(N(C)C(=O)CN(C)C)cc1Nc1nc(Nc2cccc(F)c2C(N)=O)c2cc[nH]c2n1
-0.28

Then this compound: O=C(Nc1n[nH]c2cc(-c3cc(F)ccc3F)ccc12)C1CC1
-1.77

----------
Catalogue of inhibition readings, one per entry.
measuredOn: Non-receptor tyrosine-protein kinase TYK2 (Homo sapiens) (UniProt P29597)
Sequence (P29597 whole entry): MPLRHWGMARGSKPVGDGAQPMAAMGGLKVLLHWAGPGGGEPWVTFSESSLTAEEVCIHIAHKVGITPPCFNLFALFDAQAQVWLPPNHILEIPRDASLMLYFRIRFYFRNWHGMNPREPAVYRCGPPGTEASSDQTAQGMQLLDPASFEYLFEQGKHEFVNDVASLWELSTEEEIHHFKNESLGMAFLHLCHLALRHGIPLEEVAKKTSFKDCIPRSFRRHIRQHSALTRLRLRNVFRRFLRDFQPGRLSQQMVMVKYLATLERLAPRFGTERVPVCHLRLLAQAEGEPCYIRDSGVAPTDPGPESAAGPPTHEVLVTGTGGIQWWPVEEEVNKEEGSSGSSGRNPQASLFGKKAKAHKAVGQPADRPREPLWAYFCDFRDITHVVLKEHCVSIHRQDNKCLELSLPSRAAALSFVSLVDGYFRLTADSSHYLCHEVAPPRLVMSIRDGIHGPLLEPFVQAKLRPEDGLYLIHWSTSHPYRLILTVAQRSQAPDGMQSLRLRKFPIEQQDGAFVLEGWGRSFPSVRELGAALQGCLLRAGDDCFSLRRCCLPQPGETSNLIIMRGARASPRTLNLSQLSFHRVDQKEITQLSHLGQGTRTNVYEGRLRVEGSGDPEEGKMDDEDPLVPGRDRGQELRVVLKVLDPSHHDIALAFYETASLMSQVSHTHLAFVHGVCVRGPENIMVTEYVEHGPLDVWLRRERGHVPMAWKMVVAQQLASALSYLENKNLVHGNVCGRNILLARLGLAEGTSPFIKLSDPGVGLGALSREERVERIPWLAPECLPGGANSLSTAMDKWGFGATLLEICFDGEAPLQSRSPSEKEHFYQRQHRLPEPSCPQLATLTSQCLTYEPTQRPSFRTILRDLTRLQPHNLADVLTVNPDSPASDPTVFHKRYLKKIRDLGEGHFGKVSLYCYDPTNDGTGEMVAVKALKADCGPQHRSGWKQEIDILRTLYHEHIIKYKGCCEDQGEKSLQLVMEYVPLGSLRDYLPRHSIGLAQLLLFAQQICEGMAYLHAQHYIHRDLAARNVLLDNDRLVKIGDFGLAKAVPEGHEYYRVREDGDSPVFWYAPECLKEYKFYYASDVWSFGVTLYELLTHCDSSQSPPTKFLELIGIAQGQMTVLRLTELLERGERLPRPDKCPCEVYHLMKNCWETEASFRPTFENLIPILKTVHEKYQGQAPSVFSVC
assaySetup: at 1 µM
Note: unit % is implicit; provide only the numeric part.

Worked cases, inhibition given:
O=C(Nc1n[nH]c2nc(-c3ccco3)ccc12)C1CC1	-1.09
COc1ccc2cc(-c3c(-c4ccncc4)nc(-c4ccc([S+](C)[O-])cc4C)n3C)ccc2c1 (centres undefined)	0.94
Fc1ccc(-c2ncn(CCCN3CCOCC3)c2-c2ccncc2)cc1	-0.81
COc1ccc(-c2ccc3c(NC(=O)C4CC4)n[nH]c3n2)cc1	-0.42
CN(C)CCCNc1nccc(-c2c(-c3ccc(F)cc3)nn3cc(C(F)(F)F)ccc23)n1	-0.14
Cc1nnc(-c2ccc(C)c(-c3ccc(C(=O)NCc4ccc(Cl)cc4)cc3)c2)o1	-3.78
CCc1ccc(Oc2nccc(-c3c(-c4ccc(F)cc4)ncn3C3CCNCC3)n2)cc1	-1.9
c1ccc(-c2n[nH]cc2-c2ccnc(-c3ccc(OCCN4CCOCC4)cc3)c2)nc1	1.87
COc1ccc2cc(-c3c(-c4ccncc4)nc(-c4ccc(S(C)(=O)=O)cc4C)n3C)ccc2c1	-1.13
O=C1NC(=O)C(c2cccc(Cl)c2)=C1Nc1ccc(Cl)c(C(=O)O)c1	-1.23

I am curious: what inhibition value has been reported for C#Cc1cccc(Nc2ncnc3ccc(OCCCCNCCS(C)(=O)=O)cc23)c1 ?
-1.47

Can you handle CN(C)c1ccc2c(c1)/C(=C/Nc1ccc(S(N)(=O)=O)cc1)C(=O)N2 next?
17.2

Okay, and COC(=O)Nc1nc2ccc(Sc3ccc(NC(=O)Nc4cc(C(F)(F)F)ccc4F)cc3)cc2[nH]1 ?
0.01

Lookup CNC(=O)c1cncc(/C=C/c2c(C)cccc2C)c1
0.52

Note, next up: COc1cc2ncn(-c3cc(OCc4cccs4)c(C(N)=O)s3)c2cc1OC
0.53

NS(=O)(=O)c1ccc(Nc2cc(-c3ccc(O)c(F)c3)n[nH]2)cc1 , same question.
5.71

Record: COc1cccc(/C=N/Nc2ncnc3c2cnn3-c2cccc(OC)c2)c1
-1.11

Now give it for Fc1ccc(-c2ncn(C3CCNCC3)c2-c2ccnc(Oc3ccc4c(c3)OCO4)n2)cc1 too.
-3.97

----------
measuredOn: Serine/threonine-protein kinase Chk1 (Homo sapiens) (UniProt O14757)
Sequence (whole entry): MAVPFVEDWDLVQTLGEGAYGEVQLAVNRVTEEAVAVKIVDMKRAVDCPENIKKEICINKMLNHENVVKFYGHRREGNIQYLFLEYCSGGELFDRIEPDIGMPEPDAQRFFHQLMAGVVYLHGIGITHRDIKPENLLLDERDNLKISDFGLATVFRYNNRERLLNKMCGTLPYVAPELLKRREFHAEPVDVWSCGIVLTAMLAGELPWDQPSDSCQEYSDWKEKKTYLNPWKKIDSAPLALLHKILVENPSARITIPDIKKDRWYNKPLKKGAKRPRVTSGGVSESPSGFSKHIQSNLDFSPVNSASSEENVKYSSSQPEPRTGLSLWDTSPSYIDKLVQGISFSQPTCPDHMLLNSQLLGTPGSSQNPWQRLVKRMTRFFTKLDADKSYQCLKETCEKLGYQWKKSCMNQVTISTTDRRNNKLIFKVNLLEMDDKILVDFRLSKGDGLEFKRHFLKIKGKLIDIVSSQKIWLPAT
assaySetup: at 1 µM
measurementLabel: inhibition (%)
# number only, unit % dropped from output

Here's what some known entries look like.
CCN(CC)Cc1ccc(Nc2nccc(-c3cnn4ncccc34)n2)cc1	11.6
Cc1ccc(NC(=O)c2ccoc2)cc1-c1ccc(C(=O)NCC2CC2)cc1	1.01
COc1cc(Nc2ncc3c(C)nc(-c4cccc(Oc5ccccc5)c4)n3n2)cc(OC)c1OC	10.2

Record request: inhibition value, item NC(=O)c1cc(-c2ccncc2)cc(-c2ccccc2)c1N
-2.65

----------
measuredOn: Proto-oncogene tyrosine-protein kinase Src (Homo sapiens) (UniProt P12931)
Sequence (P12931 2-536 limits assumed): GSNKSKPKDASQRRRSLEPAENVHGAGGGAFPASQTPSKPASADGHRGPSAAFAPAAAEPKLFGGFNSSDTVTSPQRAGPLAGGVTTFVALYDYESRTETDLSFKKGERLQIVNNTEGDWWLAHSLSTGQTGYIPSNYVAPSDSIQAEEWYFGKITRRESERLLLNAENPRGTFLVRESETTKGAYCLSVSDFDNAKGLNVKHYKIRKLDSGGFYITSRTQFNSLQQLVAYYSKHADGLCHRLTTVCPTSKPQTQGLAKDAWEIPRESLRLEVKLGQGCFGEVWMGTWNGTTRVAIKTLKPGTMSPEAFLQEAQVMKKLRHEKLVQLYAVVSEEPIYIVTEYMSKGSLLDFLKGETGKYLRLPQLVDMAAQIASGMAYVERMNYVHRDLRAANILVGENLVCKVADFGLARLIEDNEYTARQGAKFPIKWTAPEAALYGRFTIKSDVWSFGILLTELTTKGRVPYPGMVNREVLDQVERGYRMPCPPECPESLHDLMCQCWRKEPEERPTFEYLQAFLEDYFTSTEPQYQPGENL
assaySetup: at 0.1 µM
inhibition listing for selected compounds.
Hi! Could you send only the number? It should be in %, unit omitted.

Example cases with answers are listed next.
COc1ccc2cc(-c3c(-c4ccncc4)nc(-c4ccc([S+](C)[O-])cc4C)n3C)ccc2c1 (configuration not stated)	2.64
O=C(Nc1n[nH]c2nc(-c3ccc(O)cc3)c(Br)cc12)C1CC1	-2.92
Cc1ccc(C(=O)NC2CCC2)cc1-c1ccc(C(=O)NCC2CC2)cc1	1.78
C/C(Nc1ccc(S(N)(=O)=O)cc1)=C1/C(=O)Nc2ccccc21	-2.31
COc1cc2ncn(-c3cc(OCc4cccs4)c(C(N)=O)s3)c2cc1OC	3.31
C#Cc1cccc(Nc2ncnc3ccc(OCCCCNCCS(C)(=O)=O)cc23)c1	1.2
CNC(=O)c1cncc(/C=C/c2c(C)cccc2C)c1	17.5
Cc1nnc(-c2ccc(C)c(-c3ccc(C(=O)NCc4ccc(Cl)cc4)cc3)c2)o1	-1.25
C[C@@H](Oc1cc(-n2cnc3ccc(OCC4CCN(C)CC4)cc32)sc1C(N)=O)c1ccccc1Cl	11.9
O=C(Nc1n[nH]c2cc(-c3cc(F)ccc3F)ccc12)C1CC1	-1.08

Field request: inhibition | item: CCC(=O)Nc1ccc(C)c(-c2ccc(C(=O)NCC3CC3)cc2)c1
6.28

Please give the result for COc1cc2ncn(-c3cc(OCc4ccccc4C(F)(F)F)c(C(C)=O)s3)c2cc1OC too.
6.86
